# subject_of_test: Human immunodeficiency virus type 1 reverse transcriptase (Human immunodeficiency virus 1)
# test_protocol: Inhibition of HIV-1 reverse transcriptase.
I'd appreciate it if you marked entries Satisfied when EC50 is lower than 200 nM and Not satisfied when it is not.

Cc1cccc2c1nc(-c1c(F)cccc1F)n2Cc1ccccc1
Not satisfied
Fc1cccc(F)c1Cn1c(-c2c(F)cccc2F)nc2c(Cl)cccc21
Not satisfied
CCc1cccc2c1nc(-c1c(F)cccc1F)n2Cc1c(F)cccc1F
Not satisfied
O=[N+]([O-])c1cccc2c1nc(-c1c(F)cccc1F)n2Cc1c(F)cccc1F
Not satisfied
CC(=O)N(C)c1cccc2c1nc(-c1c(F)cccc1F)n2Cc1c(F)cccc1F
Satisfied

Strictly below 200 nM: is that where EC50 of `O=Cc1cccc2c1nc(-c1c(F)cccc1F)n2Cc1c(F)cccc1F` sits?
Satisfied

Strictly below 200 nM: is that where EC50 of `NCc1cccc2c1nc(-c1c(F)cccc1F)n2Cc1c(F)cccc1F` sits?
Not satisfied

Strictly below 200 nM: is that where EC50 of `CC(=O)OCc1cccc2c1nc(-c1c(F)cccc1F)n2Cc1c(F)cccc1F` sits?
Satisfied

Strictly below 200 nM: is that where EC50 of `CNc1cccc2c1nc(-c1c(F)cccc1F)n2Cc1c(F)cccc1F` sits?
Not satisfied

Strictly below 200 nM: is that where EC50 of `Fc1cccc(F)c1Cn1c(-c2c(F)cccc2F)nc2c(Br)cccc21` sits?
Not satisfied

Strictly below 200 nM: is that where EC50 of `NC(=O)c1cccc2c1nc(-c1c(F)cccc1F)n2Cc1c(F)cccc1F` sits?
Not satisfied

Strictly below 200 nM: is that where EC50 of `Cc1cccc2c1nc(-c1c(F)cccc1F)n2Cc1c(F)cccc1F` sits?
Not satisfied

Strictly below 200 nM: is that where EC50 of `COc1cccc(F)c1-c1nc2c(N)cccc2n1Cc1c(F)cccc1F` sits?
Not satisfied

Strictly below 200 nM: is that where EC50 of `COc1cccc2c1nc(-c1c(F)cccc1F)n2Cc1c(F)cccc1F` sits?
Satisfied

Strictly below 200 nM: is that where EC50 of `Fc1cccc(F)c1Cn1c(-c2c(F)cccc2F)nc2ccccc21` sits?
Not satisfied

Strictly below 200 nM: is that where EC50 of `OCc1cccc2c1nc(-c1c(F)cccc1F)n2Cc1c(F)cccc1F` sits?
Satisfied

Strictly below 200 nM: is that where EC50 of `Fc1cccc(F)c1Cn1c(-c2ccccc2)nc2ccccc21` sits?
Not satisfied

Strictly below 200 nM: is that where EC50 of `Fc1cccc(F)c1Cn1c(-c2c(F)cccc2F)nc2c(CCl)cccc21` sits?
Satisfied
